EXPERIMENTAL DETAILS: qHTS screen for small molecules that induce genotoxicity in human embryonic kidney (HEK293T) cells expressing luciferase-tagged ELG1; also: nearly all actives have a fitted effect of over 60% in size; also: potency is read from the fitted curve at half-maximal effect
SETUP CONDITIONS: HEK293T ELG1-luciferase reporter, luminescence, 16 h; series mostly up to 46 µM
Screen size: about 330,000 compounds; about 4,200 (1.3%) were called active. Inconclusive results (about 6%) are left out. For the sample, actives were picked, then their nearest neighbours and some compounds at random.
MEASURE: Potency

// known answers, use as guide
CHEM SMILES | Potency
COc1cc(/C=C2\Oc3ccc(C#Cc4ccc(O)cc4)cc3C2=O)cc(OC)c1 | inactive
CC[C@@]1(C(=O)OC)N[C@H](CN(C)C(C)=O)[C@@H]2C(=O)N(C)C(=O)[C@@H]21 | inactive
C[C@H](NS(=O)(=O)c1ccc(Cl)cc1)C(=O)OCC(=O)N1CCOCC1 | inactive
CC(C)Cc1cc(C(=O)Nc2cc(Br)ccc2O)no1 | 8.2 µM (active)

Then there is this molecule:
The recorded Potency for CC(C)C(=O)NCc1cc(-c2ccc(Cl)cc2)no1 is inactive

----------
EXPERIMENTAL DETAILS: qHTS screen for small molecules that induce genotoxicity in human embryonic kidney (HEK293T) cells expressing luciferase-tagged ELG1; also: nearly all actives have a fitted effect of over 60% in size; also: potency is read from the fitted curve at half-maximal effect
SETUP CONDITIONS: HEK293T ELG1-luciferase reporter, luminescence, 16 h; series mostly up to 46 µM
The whole screen tested about 330,000 compounds, of which about 4,200 (1.3%) were called active. Not shown: some 6% with an inconclusive outcome. The sample holds actives, similar compounds and a random draw of the others, so the mix is not that of the screen.
MEASURE: Potency

COMPOUND | Potency
O=C(c1cc(-c2ccc(O)cc2)on1)N1CCCc2ccccc21 | inactive
N#Cc1ccc(C2N=C(c3ccccc3)NO2)cc1 (stereo not drawn) | 5.17 µM (active)
CC[C@]12c3[nH]c4ccc(Cl)cc4c3CCN1C(=O)[C@@H](CC(=O)NCCCOC)C[C@@H]2C(=O)N1CCN(C(=O)C2CC2)CC1 | inactive
Nc1ccc(C(=O)Nc2ccccc2N)cc1 | 14.6 µM (active)
O=C(CSc1nc2ccccc2c(=O)n1-c1ccc(F)cc1)NC1CC1 | inactive
COc1cc(NC(=O)c2[nH]cnc2C(N)=O)cc(C(=O)Nc2cccc(C(F)(F)F)c2)c1 | inactive
CC1Sc2ccc(C(=O)NCc3ccccc3Cl)cc2NC1=O (stereo not drawn) | inactive
CCN(C(=O)CSc1nnnn1-c1ccc(OC)cc1)C1CCS(=O)(=O)C1 (stereo not drawn) | inactive

Now for a further compound.
Summary for this compound, Cn1c(=NC(=O)c2cnccn2)sc2ccccc21 : Potency is 8.2 µM (active)

----------
EXPERIMENTAL DETAILS: qHTS screen for small molecules that induce genotoxicity in human embryonic kidney (HEK293T) cells expressing luciferase-tagged ELG1; also: nearly all actives have a fitted effect of over 60% in size
SETUP CONDITIONS: HEK293T ELG1-luciferase reporter, luminescence, 16 h; series mostly up to 46 µM
Screen size: about 330,000 compounds; about 4,200 (1.3%) were called active. About 6% were inconclusive and are not listed. The call rests on the fitted dose curve; in most records, active means well fitted activation curve with a large enough effect; inconclusive means small, poorly fitted or top-dose-only effect; inactive means no such curve, though single readings can be large or run the other way. Many of the other results were omitted from the sample, so actives are more common in it than they were.
Your response should consist of one outcome taken from active, inactive

Recorded test call requested for Cc1cccc2c(=O)n3c(nc12)CCCCC3
inactive

Assay result, entry CCCCOc1ccc(C(=O)NCC(=O)OCC(=O)c2c(N)n(C)c(=O)n(C)c2=O)cc1 — outcome?
inactive

What did the test return for C#CCOCCOCCOCCNc1nc(N2CCN(C(=O)[C@H](CO)n3cc([C@@H](N)C(C)C)nn3)CC2)nc(N2CCN(C(=O)[C@H](CCC(=O)O)n3cc([C@@H](N)[C@H](C)CC)nn3)CC2)n1 ?
inactive

Query: recorded result category for O=C(CSCc1ccc(Cl)cc1)N1CCN(Cc2ccc3c(c2)OCO3)CC1 in this test
inactive

Assay outcome for O=C(CSCc1cccs1)N1CCCC1 : what was it?
active

Could you check what this test reported for Cc1cccc2c1N(CCOc1ccccc1)C(=O)C2=O ?
inactive

Test call, this compound: O=C(Cn1cnc2c(OCc3ccccc3)ncnc21)NCc1nc2ccccc2[nH]1
inactive

Called result for O=c1c2c(nc3n1CCCCC3)sc1c(O)cccc12
active

// param item: Oc1ccc(/C=N/Nc2nc(-c3ccccc3F)nc3ccccc23)c(O)c1 ; yields the recorded call
inactive

Hello, I am checking results. What call was entered for C=CC[C@@H](CC(=O)NCCO)C(=O)N[C@H](C)COC(=O)[C@@H](CC=C)CC(=O)OC(C)(C)C ?
inactive

Give the logged outcome of this assay for the following compound: O=C(COc1ccccc1Cl)N1CCCCCCC1
inactive

GET /call?item= Cn1c(SCC(=O)N2CCCC2)nnc1-c1cccs1 returns the recorded outcome of this test.
inactive

Field: outcome | Entry: Cc1ccsc1C(=O)NNC(=O)COc1ccc(Br)cc1
inactive

Called result for CCN(CC)C(=O)[C@H]1CC(CC(=O)NCc2ccco2)C(=O)N2CCc3c([nH]c4ccccc34)[C@]12C (stereo not given in full)
inactive

Recorded test outcome, item Cc1cc(C(=O)OCC(=O)N2C(C)CCCC2C)c2ccccc2n1 (stereo not given)
inactive

Status in this test for COc1ccc(/C=C(\C#N)C(=O)ONC2=NCCCCC2)cc1 ?
inactive

Just curious, what result did O=C(C[C@H]1C[C@H](C(=O)N2CCOCC2)[C@@]2(CCC3CCCC3)c3[nH]c4ccc(Cl)cc4c3CCN2C1=O)NCc1ccco1 get here?
inactive

What was the test verdict on O=C(CSc1ccsc1[N+](=O)[O-])N1CCCCC1 ?
inactive

Which outcome was assigned to O=C(N[C@@H]1C/C=C\C[C@@H](CC(=O)N(CCO)Cc2ccccc2)C(=O)N[C@H](Cc2ccccc2)COC1=O)OCC1c2ccccc2-c2ccccc21 in this test?
inactive

// outcome(item) with item = Cc1c(C(=O)Nc2ccccc2)sc2nc3n(c(=O)c12)CCCCC3
inactive

----------
EXPERIMENTAL DETAILS: qHTS screen for small molecules that induce genotoxicity in human embryonic kidney (HEK293T) cells expressing luciferase-tagged ELG1; also: nearly all actives have a fitted effect of over 60% in size
SETUP CONDITIONS: HEK293T ELG1-luciferase reporter, luminescence, 16 h; series mostly up to 46 µM
About 4,200 (1.3%) of roughly 330,000 compounds were called active. Another 6% or so got no clear call; they are omitted. Calls come from the whole dose curve; as a rule, active = well fitted activation curve with a large enough effect; inconclusive = small, poorly fitted or top-dose-only effect; inactive = no such curve, though single readings can be large or run the other way. This is one part of a sample in which actives are shown more often than they occur.
Classes to choose from: active, inactive

# outcome recorded in this test, key = COc1ccc(-c2c(C#Cc3ccsc3)c3cc(-c4ccc(CN5CCOCC5)cc4)ccc3n2C)cc1
inactive

Hey, what did the test say about COc1cc2c(cc1OC)/C(=C/C(=O)c1ccc(NC(C)=O)cc1)NCC2 ?
inactive

Just curious, what result did Cc1cc(C(=O)COC(=O)C2CC2)c(C)n1-c1ccc(F)cc1 get here?
active

// param item: CC1CN/C(=C\C(=O)c2ccc(Br)cc2)C(=O)N1 (stereo not given) ; yields the recorded call
active

How did this test come out for Cc1ccc(-n2c(C)cc(C(=O)CN3C(=O)C(=O)N(C4CCCC4)C3=O)c2C)cc1 ?
inactive

----------
EXPERIMENTAL DETAILS: qHTS screen for small molecules that induce genotoxicity in human embryonic kidney (HEK293T) cells expressing luciferase-tagged ELG1; also: nearly all actives have a fitted effect of over 60% in size
SETUP CONDITIONS: HEK293T ELG1-luciferase reporter, luminescence, 16 h; series mostly up to 46 µM
The whole screen tested about 330,000 compounds, of which about 4,200 (1.3%) were called active. Inconclusive results (about 6%) are left out. Calls follow the shape of the dose curve; as a rule, active = well fitted activation curve with a large enough effect; inconclusive = small, poorly fitted or top-dose-only effect; inactive = no such curve, though single readings can be large or run the other way. Shown is part of a subset that was picked to be rich in actives.
Result category, one only: active, inactive

Hey, what did the test say about CCOC(=O)[C@H]1[C@H]2COc3ccccc3[C@@H]2N2C(=O)CN(Cc3ccccc3)C(=O)[C@@]12C ?
inactive

Recorded call for Cc1ccccc1NC(=O)NNC(=O)OC(C)(C)C ?
inactive

Could you kindly confirm the outcome this assay logged for CC(=O)Oc1ccc2c(c1)C(=O)c1ccccc1C2=O ?
inactive

Which outcome was entered for the molecule COc1cc(C(=O)OCc2cc(=O)n3ccsc3n2)ccc1OC(C)C in this test?
inactive

How did this test come out for COc1ccc2nc(NC(=O)NC3CCCCC3)sc2c1 ?
inactive

Write down the call the test reported for this molecule. Item: CCSc1ccccc1C(=O)Nc1ccc2c(c1)OCO2
inactive

Write down the call the test reported for this molecule. Item: CC(C)C(NC(=O)c1c(F)cccc1F)C(=O)NNC(=O)c1ccccc1 (stereo unspecified)
inactive

State the result this test recorded for Cc1ccc(S(=O)(=O)Nc2ccc3c(c2)C(=O)N([C@H](C)CO)C[C@@H](C)[C@@H](CN(C)C(=O)Nc2cccc4ccccc24)O3)cc1 .
inactive

Hi, sorry to bother you, what did the test record for CC(C)C(=O)Nc1cccc(C(=O)Nc2ccc3c(c2)OCO3)c1 ?
active

Outcome logged for Cc1ccc(/C=N/NC(=O)c2cc3ccccc3cc2O)o1 in this assay:
inactive

What did the test return for O=C(COC(=O)/C=C/c1cccc(Cl)c1)NCc1cccs1 ?
inactive

Which outcome was entered for the molecule CC(=O)Nc1ccc(Nc2c3ccccc3nc3ccccc23)cc1 in this test?
active

# outcome recorded in this test, key = COc1cccc(-c2ccc3c(c2)S(=O)(=O)c2cccc(C(=O)O)c2C3=O)c1OC
inactive

// param item: O=C(CSc1ccc(-c2ccc(-n3cccn3)cc2)nn1)Nc1ccc([N+](=O)[O-])cc1 ; yields the recorded call
active

Hi team, can someone confirm the assay call for COc1ccc(CNC(=O)C[C@H]2C[C@H](C(=O)N3CCOCC3)[C@@]3(C)c4[nH]c5cc(CCC(=O)N(C)C)ccc5c4CCN3C2=O)cc1OC ?
inactive

Lab log entry: Nc1cccc(CCc2nc3ccccc3[nH]2)c1 — outcome as called in the assay?
inactive

Recorded test outcome, item COc1ccc(C(=O)NCc2ccccc2C)cc1S(=O)(=O)NC1CCCC1
inactive

For c1ccc2c(CCN3CCNC[C@H]3Cc3cccc4ccccc34)cccc2c1 , which call appears in the assay record?
inactive

Call for entry COc1ccc2[nH]c3c(c2c1)CCN1C(=O)C(CC(=O)NCCc2ccccn2)C[C@H](C(=O)N2CCOCC2)[C@@]31C (stereo partly specified) :
inactive

Dear colleague, could you share the recorded outcome for O=C(Nc1nc2ccccc2s1)c1ccc2c(c1)OCO2 when you have a moment?
active

What classification did COC(=O)C1=C(C)N(Cc2ccccc2)C(=NCCCOC(C)C)N[C@H]1c1ccccc1 end up with in this test?
inactive

Call for entry O=C(Nc1cccc(S(=O)(=O)Nc2ccc(Cl)cc2)c1)c1ccc2c(c1)OCCO2 :
inactive

Fill in: this test's call for Cc1ccc(C)c(C(C)NC(=O)C2CCCO2)c1 (stereo unspecified) is ___
inactive

# lookup: test call for CSc1ncccc1C(=O)Nc1ccc2c(c1)OCO2
inactive

Fill in: this test's call for COc1ccc2nc(NC(=O)c3ccc(Br)s3)sc2c1 is ___
active

Entry Cc1ccc(C(=O)OCC(=O)N2CCCCCC2)cc1S(=O)(=O)N1CCOCC1 : call = ?
inactive

Query: recorded result category for COc1ccc2c(c1OC)C(=O)c1ccccc1C2=O in this test
active

Each molecule tested received a call. Report the one for O=C(Nc1cccc(S(=O)(=O)N2CCCCC2)c1)c1ccc2c(c1)OCO2 .
inactive

Test call for this molecule, please: CCN1C[C@@H]2[C@@H]3C(=O)N(Cc4ccccc4)C(=O)[C@@H]3[C@](Cc3ccccc3)(C(=O)OC)N2C1=NC1CCCCC1
inactive

Outcome? CC(C)(C)OC(=O)N/N=C/c1ccc(C(=O)O)cc1
inactive

Fill in: this test's call for Cc1cc([N+](=O)[O-])ccc1NC(=O)C1CCCO1 (stereo unspecified) is ___
inactive

Just curious, what result did Cc1cc(O)cc(O)c1C(=O)Cc1cnn(-c2ccccc2)c1 get here?
inactive

Assay result, entry O=C(Nc1ccccc1N1CCN(C(=O)c2ccccc2)CC1)c1ccc2c(c1)OCO2 — outcome?
inactive

Look up the recorded call for C#CCOCCOCCOCCNc1nc(N2CCN(C(=O)[C@H](CCCN=C(N)N)n3cc(C(N)[C@@H](C)CC)nn3)CC2)nc(N2CCN(C(=O)[C@H](CO)n3cc([C@@H](N)C(C)C)nn3)CC2)n1 (stereo partly specified) in this test.
inactive

What was the test verdict on COc1ccc2[nH]c3c(c2c1)CCN1C(=O)C(CC(=O)NCc2cccc(C(F)(F)F)c2)C[C@H](C(=O)N2CCOCC2)[C@@]31C (stereo partly specified) ?
inactive

Look up the recorded call for Cc1ccc(Br)c(NS(=O)(=O)c2cccc(C(=O)N3CCNC(=O)C3)c2)c1 in this test.
inactive

Which result was noted for this molecule in the test: CN(c1ccccc1)S(=O)(=O)c1cc(C(=O)N2CCN(c3ncccn3)CC2)ccc1Cl
inactive

I'd appreciate the recorded outcome for CCCCCCOc1ccc(OC(=O)c2cccnc2)cc1 from this test.
inactive

# outcome recorded in this test, key = NCCN1CCN2C(=O)CN(C(=O)c3ccccc3)CC12 (stereo unspecified)
inactive

What outcome does the record of this test show for Cc1cc(N=Nc2ccc3ccccc3c2)ccc1O ?
active

For this molecule, state the assay outcome: COc1ccc(-c2[nH]nc(-c3ccccc3)c2-c2nc3ccccc3[nH]2)cc1
inactive
